Source: the supplement of paper PMC11451515

- Test system: P12-Ichikawa
- ASSAY_PROTOCOL: cell viability relative to DMSO control; higher = less cytotoxic
- CONDITION_SUMMARY: RPMI 5 mM glucose + 10% dialyzed FBS; 48 h; 0.0632 µM
Measured cell viability of individual entries

# ITEM_SMILES, ASSAYED_SYSTEM, cell viability (%)
rows = [
    ("COC1=CC=C2CN(C)CC[C@@]34\\C=C/[C@H](O)C[C@@H]3OC1=C24", "P12-Ichikawa", 130),
    ("CC(C)Oc1ccc(C(=O)N[C@H](CNC(=O)CN(C)C)Cc2ccc(-c3cn4cccc([C@H](C)O)c4n3)cc2)cc1Cl", "P12-Ichikawa", 102),
    ("N#C/N=C(\\NCCCCCCOc1ccc(Cl)cc1)Nc1ccncc1", "P12-Ichikawa", 8.43),
    ("NC(=O)c1ncn([C@@H]2O[C@H](CO)[C@@H](O)[C@H]2O)c1O", "P12-Ichikawa", 122),
    ("CO/N=C(\\C(=O)N[C@@H]1C(=O)N2C(C(=O)OCOC(=O)C(C)(C)C)=C(/C=C\\c3scnc3C)CS[C@H]12)c1csc(N)n1", "P12-Ichikawa", 104),
    ("C[S+](=O)([O-])c1ccc(Oc2cc(F)cc(C#N)c2)c2c1[C@H](O)C(F)(F)C2", "P12-Ichikawa", 115),
    ("CCN1CCN(C(=O)Cc2ccc(Nc3ncc(F)c(Nc4ccc(C(=O)Nc5ccccc5Cl)cc4)n3)cc2)CC1", "P12-Ichikawa", 131),
    ("CC(C)C[C@H](NC(=O)[C@@H](O)[C@H](N)Cc1ccccc1)C(=O)O", "P12-Ichikawa", 130),
    ("NC(=O)NO", "P12-Ichikawa", 92.2),
]

---

- Tested on: SEM cells
- ASSAY_PROTOCOL: cell viability relative to DMSO control; higher = less cytotoxic
- CONDITION_SUMMARY: RPMI 5 mM glucose + 10% dialyzed FBS; 48 h; 15.4 µM

# COMPOUND, cell viability
records = [
    ("N#C[C@H](O[C@@H]1O[C@H](CO[C@@H]2O[C@H](CO)[C@@H](O)[C@H](O)[C@H]2O)[C@@H](O)[C@H](O)[C@H]1O)c1ccccc1", "92.2%"),
    ("C[C@@]1(C(=O)Nc2ccc(F)nc2)CCCN1c1nc(Nc2cc(C3CC3)[nH]n2)c2cccn2n1", "16.4%"),
    ("NC/1=N/C(=O)N(/C=N1)[C@@H]2O[C@H](CO)[C@@H](O)[C@H]2O", "6.43%"),
    ("CC/1=C(/N2[C@H](SC1)[C@H](NC(=O)C(N)C3=CC=CC=C3)C2=O)C(O)=O (stereo not given in full)", "130%"),
    ("C#CCN[C@@H]1CCc2ccccc21.CS(=O)(=O)O", "110%"),
    ("COC1=CC=C2/C3=N/CCN3\\C(=N/C2=C1OC)NC(=O)C4=CC=CN=C4", "81.1%"),
    ("N[S+](=O)([O-])OC[C@@H]1C[C@@H](n2ccc3c(N[C@H]4CCc5ccccc54)ncnc32)C[C@@H]1O", "12.1%"),
    ("CNC(=O)CN1CCC(Oc2cc3c(Nc4cccc(Cl)c4F)ncnc3cc2OC)CC1", "138%"),
    ("CC/1=C(\\O)C(=O)\\C=C2/C1=C/C=C3\\[C@@]2(C)CC[C@@]4(C)[C@@H]5C[C@@](C)(CC[C@]5(C)CC[C@]34C)C(O)=O", "9.09%"),
    ("CNC(=O)[C@H](CC/1=C/N=C\\2/C=C\\C\\C=C12)NC(=O)[C@H](CC(C)C)CC(=O)NO", "102%"),
    ("CC(C)Cc1ccc(C(C)C(=O)O)cc1 (stereo not given)", "77.5%"),
    ("CC(C)Oc1ccc(C(=O)N[C@H](CNC(=O)CN(C)C)Cc2ccc(-c3cn4cccc([C@H](C)O)c4n3)cc2)cc1Cl", "29.4%"),
    ("Cn1cc(C[C@@H](N)C(=O)O)c2ccccc21", "96.3%"),
    ("C[C@@H](O)[C@@H]1NC(=O)[C@H](CCCCN)NC(=O)[C@@H](Cc2c[nH]c3ccccc23)NC(=O)[C@H](Cc2ccccc2)NC(=O)[C@@H](NC(=O)[C@H](N)Cc2ccccc2)CSSC[C@@H](C(=O)N[C@H](CO)[C@@H](C)O)NC1=O", "85.6%"),
    ("Cc1onc(-c2ccccc2)c1C(=O)N[C@@H]1C(=O)N2[C@@H]1SC(C)(C)[C@@H]2C(=O)[O-].[Na+]", "108%"),
    ("Cc1noc(-c2ccc(CSCCC(=O)O)cc2)c1NC(=O)OC(C)c1ccccc1Cl (stereo not given)", "114%"),
    ("Cc1ncc([N+](=O)[O-])n1CC(C)O (stereo not given)", "99.6%"),
    ("N#C/N=C(\\NCCCCCCOc1ccc(Cl)cc1)Nc1ccncc1", "4.36%"),
    ("CC(C)[C@H](N)C(=O)OCCOC[N]1C=NC2=C1\\N=C(N)/NC2=O", "133%"),
    ("N=C1N[C@H]2[C@H](CS[C@H]2CCCCC(=O)O)N1", "124%"),
    ("CC(C)OC1=CC=C2C(=C1)O\\C=C(/C2=O)C3=CC=CC=C3", "148%"),
    ("COc1cc(CNC(=O)CCCC/C=C/C(C)C)ccc1O", "19%"),
    ("NC(=O)OCC(COC(N)=O)c1ccccc1", "101%"),
    ("O=[S+]([O-])(c1cccc2cnccc12)N1CCCNCC1", "146%"),
    ("Cc1nc(Nc2n[nH]c3c2CN(C(=O)N[C@H](CN(C)C)c2ccccc2)C3(C)C)c2sccc2n1", "2.4%"),
]
